details: pH 6.8
PROPERTY LABEL: aqueous solubility (µg/mL)

Cc1csc(N(C(=O)c2ccc(-n3cncn3)c(F)c2)C2CC2)n1 53.3

[I] COc1ccc2c(c1)CN(C(=O)c1cc(C3CC3)[nH]n1)CC2
[II] Cc1cccnc1NC(=O)c1csc(-c2ccccc2)n1
[III] O=C(Nc1nc2c(s1)COc1ccccc1-2)c1cnc(Cl)c(Cl)c1
[IV] O=C1CCCc2c1[nH]c1cc(-n3ccnc3-c3ccncc3)ccc21
[V] COc1ccc(F)c(CN2CCC(Cc3noc(C)n3)CC2)c1
[in] Arrange these compounds by their aqueous solubility, starting with the largest number. Please respond by ranking the labels in the order requested.
[out] V, II, I, IV, III
(V: 69.4 µg/mL, II: 43.2 µg/mL, I: 13.6 µg/mL, IV: 6.53 µg/mL, III: 3.7 µg/mL)
